# Tested on: zebrafish scn1Lab−/− mutant larvae
# assayMethodText: Locomotor activity measurement (behavioral assay) in the zebrafish DS model
# Assay type: in vivo, Danio rerio
# assayContext: single treatment at MTC, 22 h, Fig. 2A
experimentalReadout: effect on epileptiform (hyper-)locomotor activity

[
  {
    "molecule": "Nc1nnc(-c2cccc(Cl)c2Cl)c(N)n1",
    "targetUnderTest": "zebrafish scn1Lab−/− mutant larvae",
    "readoutValue": "no inhibitory effects"
  },
  {
    "molecule": "NC(=O)N1c2ccccc2C=Cc2ccccc21 [CBZ, carbamazepine]",
    "targetUnderTest": "zebrafish scn1Lab−/− mutant larvae",
    "readoutValue": "no inhibitory effects"
  }
]
